Recorded half-life for the following molecules
- procedureSummary: Half life in Sprague-Dawley rat at 1 mg/kg, iv
- Assay type: ADME, organism-based
- Set-up: dose 1 mg/kg, route intravenous
- conditionDescription: in vivo
observationType: half-life (h)

                                  structure  limitoperator  testresult
0  CN1CCC(CCOc2nc(C#N)nc(NCC3CCC4(CC3)CC4)c2Br)CC1              =         4.6
1  CN1CCC(CNC(=O)c2cnc(C#N)nc2NCC2CCC3(CC2)CC3)(c2ccccc2)CC1              =         3.3
2  N#Cc1ncc(C(=O)N[C@H](Cc2ccccc2)CN2CCCC2)c(NCC2CCC3(CC2)CC3)n1              =         5.7
3  CN1CCC(Oc2ccc(NC(=O)c3cnc(C#N)nc3NCC3CCC4(CC3)CC4)c(-c3ccccc3)c2)CC1              >           8

----------
- studyTarget: Cathepsin K (Homo sapiens)
- procedureSummary: Inhibition of human recombinant cathepsin K by fluorometric assay
pIC50: −log10 of the molar value.
observationType: pIC50

>>> print(df.to_string())
                                  structure                 studytarget  observationtype  limitoperator  testresult
0  CN1CCC(CCOc2cc(NCC3CCC4(CC3)CC4)nc(C#N)n2)CC1  Cathepsin K (Homo sapiens)            pIC50              =        6.62
1  N#Cc1ncc(C(=O)N[C@H](Cc2ccccc2)CN2CCCC2)c(NCC2CCC3(CC2)CC3)n1  Cathepsin K (Homo sapiens)            pIC50              =        7.36
2  CC1(C)CCC(CNc2nc(C#N)ncc2C(=O)NCCc2ccccc2)CC1  Cathepsin K (Homo sapiens)            pIC50              <        5.52
3  CN1CCC(CCOc2nc(C#N)nc(NCC3CCC4(CC3)CC4)c2Br)CC1  Cathepsin K (Homo sapiens)            pIC50              =        7.00
4  N#Cc1ncc(C(=O)NCCc2ccccc2)c(NCC2CCC3(CC2)CC3)n1  Cathepsin K (Homo sapiens)            pIC50              <        5.52
5  N#Cc1ncc(C(=O)NCCc2ccccc2)c(NC2CCCCC2)n1  Cathepsin K (Homo sapiens)            pIC50              =        8.00
6  N#Cc1ncc(C(=O)NCCc2ccccc2)c(NCC2CCCCC2)n1  Cathepsin K (Homo sapiens)            pIC50              =        7.82
7  N#Cc1ncc(C(=O)N[C@@H](Cc2ccccc2)CN2CCCC2)c(NCC2CCC3(CC2)CC3)n1  Cathepsin K (Homo sapiens)            pIC50              =        6.70
8  CN1CCC(Cc2ccccc2)(NC(=O)c2cnc(C#N)nc2NCC2CCC3(CC2)CC3)CC1  Cathepsin K (Homo sapiens)            pIC50              =        6.85
9  N#Cc1ncc(C(=O)NCCc2ccccc2)c(OCC2CCCCC2)n1  Cathepsin K (Homo sapiens)            pIC50              =        8.05

----------
- studyTarget: Procathepsin L (Homo sapiens)
- procedureSummary: Inhibition of human recombinant cathepsin L by fluorometric assay
pIC50: −log10 of the molar value.
Recorded pIC50 for the following molecules
observationType: pIC50

                                   structure  limitoperator  testresult
 0  CNC(=O)c1c(NCC2CCC3(CC2)CC3)nc(C#N)nc1OCCC1CCN(C)CC1              =        6.92
 1  N#Cc1ncc(C(=O)NCCc2ccccc2)c(NCC2CCC3(CC2)CC3)n1              <        5.52
 2  CC1(C)CCC(CNc2nc(C#N)ncc2C(=O)NCCc2ccccc2)CC1              <        5.52
 3  C[C@@](Cc1ccccc1)(CN1CCCC1)NC(=O)c1cnc(C#N)nc1NCC1CCC2(CC1)CC2              =        6.08
 4  CN1CCC(NC(=O)c2cnc(C#N)nc2NCC2CCC3(CC2)CC3)(c2ccccc2)CC1              =        6.29
 5  COc1cc(NC(=O)c2cnc(C#N)nc2NCC2CCC3(CC2)CC3)c(-c2ccccc2)cc1OC              <        5.52
 6  CN1CCC(Cc2ccccc2)(NC(=O)c2cnc(C#N)nc2NCC2CCC3(CC2)CC3)CC1              =        6.74
 7  CN1CCC(CCOc2nc(C#N)nc(NCC3CCC4(CC3)CC4)c2Br)CC1              =        6.55
 8  CN1CCC(CCOc2nc(C#N)nc(NCC3CCC4(CC3)CC4)c2C(=O)NCc2ccccc2)CC1              =        6.57
 9  N#Cc1ncc(C(=O)NCCc2ccccc2)c(OCC2CCCCC2)n1              =        6.11
10  N#Cc1ncc(C(=O)NCCc2ccccc2)c(NCC2CCCCC2)n1              <        5.70
11  CN1CCC(CCOc2cc(NCC3CCC4(CC3)CC4)nc(C#N)n2)CC1              =        6.06
12  CN1CCC(Oc2nc(C#N)nc(NCC3CCC4(CC3)CC4)c2C(=O)NCc2ccccc2)CC1              =        7.00
13  N#Cc1ncc(C(=O)N[C@@H](Cc2ccccc2)CN2CCCC2)c(NCC2CCC3(CC2)CC3)n1              =        5.82
14  CN1CCC(Oc2ccc(NC(=O)c3cnc(C#N)nc3NCC3CCC4(CC3)CC4)c(-c3ccccc3)c2)CC1              =        6.08
15  CN1CCC(CNC(=O)c2cnc(C#N)nc2NCC2CCC3(CC2)CC3)(c2ccccc2)CC1              =        6.15
16  CN1CCC(CCOc2nc(C#N)nc(NCC3CCC4(CC3)CC4)c2C(=O)NCCc2ccccc2)CC1              =        8.00
17  N#Cc1ncc(C(=O)N[C@H](Cc2ccccc2)CN2CCCC2)c(NCC2CCC3(CC2)CC3)n1              =        6.82
18  CN(CC1CCCCC1)c1nc(C#N)ncc1C(=O)NCCc1ccccc1              =        5.70
19  N#Cc1ncc(C(=O)N[C@H](Cc2ccccn2)CN2CCCC2)c(NCC2CCC3(CC2)CC3)n1              =        6.32

----------
- studyTarget: Cathepsin K (Homo sapiens, UniProt P43235)
- Sequence (P43235 whole entry): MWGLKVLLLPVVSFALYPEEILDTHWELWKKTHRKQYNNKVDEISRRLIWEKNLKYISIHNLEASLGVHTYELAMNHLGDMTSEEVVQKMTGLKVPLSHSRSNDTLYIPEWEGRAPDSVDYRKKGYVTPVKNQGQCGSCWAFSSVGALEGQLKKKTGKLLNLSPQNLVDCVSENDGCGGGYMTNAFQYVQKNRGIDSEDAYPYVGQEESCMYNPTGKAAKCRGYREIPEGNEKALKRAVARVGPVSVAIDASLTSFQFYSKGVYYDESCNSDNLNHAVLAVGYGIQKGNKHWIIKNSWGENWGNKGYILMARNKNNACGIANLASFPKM
- procedureSummary: Inhibition of human recombinant cathepsin K by fluorometric assay
Recorded IC50 for the following molecules
observationType: IC50 (nM)

                                  structure                               studytarget  observationtype  limitoperator  testresult
0  N#Cc1ncc(C(=O)NCCc2ccccc2)c(NCC2CCC(F)(F)CC2)n1  Cathepsin K (Homo sapiens, UniProt P43235)             IC50              =         130
1  COc1cc(NC(=O)c2cnc(C#N)nc2NCC2CCC3(CC2)CC3)c(-c2ccccc2)cc1OC  Cathepsin K (Homo sapiens, UniProt P43235)             IC50              >        1000
2  CN(CC1CCCCC1)c1nc(C#N)ncc1C(=O)NCCc1ccccc1  Cathepsin K (Homo sapiens, UniProt P43235)             IC50              =          36
3  CN1CCC(CNC(=O)c2cnc(C#N)nc2NCC2CCC3(CC2)CC3)(c2ccccc2)CC1  Cathepsin K (Homo sapiens, UniProt P43235)             IC50              =         170

----------
- studyTarget: Procathepsin L (Homo sapiens, UniProt P07711)
- Sequence (P07711 whole entry): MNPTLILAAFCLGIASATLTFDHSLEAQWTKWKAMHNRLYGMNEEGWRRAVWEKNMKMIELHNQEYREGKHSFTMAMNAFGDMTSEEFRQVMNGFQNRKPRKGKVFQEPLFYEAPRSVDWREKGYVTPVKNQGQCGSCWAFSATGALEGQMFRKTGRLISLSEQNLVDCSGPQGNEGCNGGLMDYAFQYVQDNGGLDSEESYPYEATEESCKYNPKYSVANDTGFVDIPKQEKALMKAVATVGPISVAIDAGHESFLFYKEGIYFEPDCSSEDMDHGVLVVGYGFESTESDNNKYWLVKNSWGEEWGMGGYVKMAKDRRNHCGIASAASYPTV
- procedureSummary: Inhibition of human recombinant cathepsin L by fluorometric assay
observationType: IC50 (nM)

>>> print(df.to_string())
                                  structure  limitoperator  testresult
0  N#Cc1ncc(C(=O)NCCc2ccccc2)c(NCC2CCC(F)(F)CC2)n1              >        3000
1  CN1CCC(COc2nc(C#N)nc(NCC3CCC4(CC3)CC4)c2C(=O)NCc2ccccc2)CC1              =          64
2  N#Cc1ncc(C(=O)NCCc2ccccc2)c(NC2CCCCC2)n1              =        1100
